# assay_overview: in vivo
# Parameters: species or system Female NIH-Swiss mice
# condition_description: mouse, ip, 100 mg/kg
measurement_label: half-life

Any idea what its half-life is? The compound is Cc1cn([C@H]2C[C@H](N=[N+]=[N-])[C@@H](CO)O2)c(=O)[nH]c1=O [AZT, 3'-azido-3'-deoxythymidine, reference compound]
18.6 min
